- target_system: T1, HLA-A*02:01 on T2 cells alone (no peptide added) (human)
- T1 construct: TAP-deficient T2 cells without pulsed peptide; negative control target, and the HLA molecule whose stabilisation by peptides is read in the T2 stabilization assay; also called HLA-A*02 molecule; HLA-A2 molecule
- experiment_summary: flow cytometry, phage on T2 without peptide; secondary only 118, unstained 95.2
readout_type: Median:FITC-A
Reply with just the number.

# query: Median:FITC-A of entry (FoxP2)_#12 (scFv, also called EXT019-12 scFv phage clone) scFv (VL-linker-VH-His/HA tag): SYELTQPPSVSVAPGKTARITCGGNNIGSKSVHWYQQKPGQAPVLVIYYDSDRPSGIPERFSGSNSGNTATLTISRVEAGDEADYYCQVWDSSSDHRVFGGGTKVTVLGSRGGGGSGGGGSGGGGSLEMAEVQLVESGGGLVQPGGSLRLSCAASGFTFSSYWMNWVRQAPGKGLEWVANIKQDGSEKNYVDSVKGRFTISRDNAKNSLYLQMNSLRGEDTAVYYCARYGGGPYDSWGQGTLVTVSSTSGQAGQHHHHHHGAYPYDVPDYAS
151

Form field: reported Median:FITC-A of (FoxP2)_#8 (scFv, also called EXT019-8; EXT019-08 scFv phage clone) scFv (VL-linker-VH-His/HA tag): QSVLTQPPSVSEAPRQRVTISCSGSSSNIGNNAVNWYQQLPGKAPKLLIYYDDLLPSGVSDRFSGSKSGTSASLAISGLQSEDEADYYCAAWDDSLNGPVFGTGTKVTVLGSRGGGGSGGGGSGGGGSLEMAEVQLVQSGAEVKKPGASVKVSCKASGYNFTSYGISWVRQAPGQGLEWMGWISAYNGNTNYAQKLQGRVTMTTDTSTSTAYMELRSLRSDDTAVYYCARDWDYDFLTGWDGMDVWGQGTTVTVSSTSGQAGQHHHHHHGAYPYDVPDYAS
141

Bench note: what Median:FITC-A did (FoxP2)_#4 (scFv, also called EXT019-4; EXT019-04 scFv phage clone) scFv (VL-linker-VH-His/HA tag): QPVLTQPPSVSVAPGKTARITCGGNNIGSKSVHWYQQKPGQAPVLVIYYDSDRPSGIPERFSGSNSGNTATLTISRVEAGDEADYYCQVWDSSSDHPVFGGGTKLTVLGSRGGGGSGGGGSGGGGSLEMAQVQLVQSGAEVKKPGSSVKVSCKASGGTFSSYAISWVRQAPGQGLEWMGGIIPIFGTANYAQKFQGRVTITADESTSTAYMELSSLRSEDTAVYYCARSSYWWTSDRWGQGTLVTVSSTSGQAGQHHHHHHGAYPYDVPDYAS show?
147

I have this binder here, (FoxP2)_#6 (scFv, also called EXT019-6; EXT019-06 scFv phage clone) scFv (VL-linker-VH-His/HA tag): QSVVTQPPSVSGAPGQGVTIPCTGSSSNIGAGYDVHWYQQLPGTAPKLLIYGNNNRPSGVPDRFSGSRSGSSASLAITGLQAEDEADYYCQSYDSSLSDVVFGGGTKLTVLGSRGGGGSGGGGSGGGGSLEMAEVQLVQSGAEVKKPGESLKISCKGSGYNFASEWIGWVRQMPGKGLEWMGLIYPAESEITYSPSFQGQVTISVDKSISTAYLQWSSLKASDTAMYYCARAWDANYIYMDIWGQGTLVTVSSTSGQAGQHHHHHHGAYPYDVPDYAS , and I need its recorded Median:FITC-A.
146

Returns the measured Median:FITC-A for the input binder. Input: (FoxP2)_#20 (scFv, also called EXT019-20 scFv phage clone) scFv (VL-linker-VH-His/HA tag): SYVLTQPPSVSVAPGKTARITCGGNNIGSKSVHWYQQKPGQAPVLVIYYDSDRPSGIPERFSGSNSGNTATLTISRVEAGDEADYYCQVWDSSSDRVVFGGGTKLTVLGSRGGGGSGGGGSGGGGSLEMAQVQLQQSGPGLVKPSQTLSLTCAISGDSISSKSAAWNWIRQSPSRGLEWLGRTYYRSKWYYEYAPSVRSRITINRDTSKNQFSLQLNSVTPEDTAVYYCARSTGTFDYWGQGTLVTVSSTSGQAGQHHHHHHGAYPYDVPDYAS
149

Data request, read-out Median:FITC-A, for (FoxP2)_#9 (scFv, also called EXT019-9; EXT019-09 scFv phage clone) scFv (VL-linker-VH-His/HA tag): SYELTQPPSVSVAPGKTARITCGGNNIGSKSVHWYQQKPGQAPVLVIYYDSDRPSGIPERFSGSNSGNTATLTISRVEAGDEADYYCQVWDSSSDHWVFGGGTKLTVLGSRGGGGSGGGGSGGGGSLEMAQVQLVQSGGGLVQPGGSLKLSCAASGFAFSGSSLHWVRQASGKGLEWVGRITSKAYNYATLYAASVKGRFTISRDDSKNTAYLQMNSLQTEDTAVYYCTQTGDSSAYWGQGTLVTVSSTSGQAGQHHHHHHGAYPYDVPDYAS
140

Fill in: Median:FITC-A of (FoxP2)_#15 (scFv, also called EXT019-15 scFv phage clone) scFv (VL-linker-VH-His/HA tag): SYVLTQPPSVSVAPGETASITCGANNIGSESVHWYQQKSGQAPVLVIYYDSDRPSGIPERFSGSNSDNTATLTISRVEAGDEADYYCQVWDHINDHYVFGSGTKVTVLGSRGGGGSGGGGSGGGGSLEMAEVQLVESGGGLAQPGGSLRLSCAASGFSFSNYAMSWVRQAPGTGLEWVAGISGRGGSIHYADSVKGRFTISRDNSQSTVFLQMNNLGAEDTAIYYCAKSSEDYYFYHMDAWGIGTTVTVSSTSGQAGQHHHHHHGAYPYDVPDYAS is ___
145

Here is the next item to consider.
// Median:FITC-A lookup, key: (FoxP2)_#13 (scFv, also called EXT019-13 scFv phage clone) scFv (VL-linker-VH-His/HA tag): LPVLTQPPSVSVAPGKTARITCGGNNIGSKSVHWYQQKPGQAPVLVIYYDSDRPSGIPERFSGSNSGNTATLTISRVEAGDEADYYCQVWDSSSAYVFGTGTKVTVLGSRGGGGSGGGGSGGGGSLEMAQVQLQQSGPGLVKPSQTLSLTCAISGDSVSSNSAAWNWIRQSPSRGLEWLGRTYYRSKWYNDYAVSVKSRITINPDTSKNQFSLQLNSVTPEDTAVYYCARYYSTSLDSWGQGTLVTVSSTSGQAGQHHHHHHGAYPYDVPDYAS
143

Cited source for all entries: patent US20190284262A1
